test system: M14 melanoma; assay: NCI tumour cell line growth inhibition, 48 h; in the data active = GI50 below about 0.43 µM; inactive = the rest
Please reply with one of these outcomes: active, inactive

>>> assigned_label("Cc1c[nH]c2c(O)cc3c(c12)[C@H](CCl)CN3C(=O)c1cc2cc(NC(=O)Nc3ccc4[nH]c(C(=O)N5C[C@@H](CCl)c6c5cc(O)c5[nH]cc(C)c65)cc4c3)ccc2[nH]1")
"active"
>>> assigned_label("C=C1C(=O)O[C@H]2[C@H]1CC/C(CNC(=O)c1cc3cc(OC)ccc3[nH]1)=C\\CC[C@@]1(C)O[C@@H]21")
"inactive"
>>> assigned_label("CC[C@H](NC(=O)[C@H](C)NC)C(=O)N1C[C@@H](O)C[C@H]1Cc1c(-c2[nH]c3cc(F)ccc3c2C[C@@H]2C[C@H](O)CN2C(=O)[C@H](CC)NC(=O)[C@H](C)NC)[nH]c2cc(F)ccc12")
"inactive"
>>> assigned_label("COc1cc(OC)c(/C=C/S(=O)(=O)Cc2cnc(OC)c(N)c2)c(OC)c1")
"active"
>>> assigned_label("O=c1c(Oc2ccc(F)cc2F)cc2cnc(NC3CCOCC3)nc2n1C1CCS(=O)(=O)CC1")
"inactive"
>>> assigned_label("CC12OC(c3ccccc3)=CC(c3ccc(Cl)cc3)=C1C(c1ccccc1)=CC2=O (centres undefined)")
"inactive"
>>> assigned_label("CC(O)c1cccc(NCc2c3ccccc3c(=O)n3c2oc2ccccc23)c1 (centres undefined)")
"inactive"
>>> assigned_label("Nc1c(C(=O)c2ccc(Cl)cc2)sc(Nc2ccccc2)c1-c1nc2ccccc2s1")
"inactive"

**Query** Name the outcome recorded for Cc1ccccc1NC(=O)N/C(N)=N/c1nc(-c2cccc([N+](=O)[O-])c2)cs1 in the assay.
**Result** inactive

**Query** What do you get for O=c1c2c(nc3n1CCS3)[nH]c1ccccc12 ?
**Result** inactive

**Query** What do you get for O=Cc1ccc(-c2cc(C=O)c(-c3cccs3)[nH]2)s1 ?
**Result** inactive

**Query** What do you get for O=c1c2cc(Cl)ccc2oc2ccc(OCCCCCN3CCCCC3)cc12 ?
**Result** inactive

**Query** What do you get for COc1ccc(/C=N\NC(=O)CN2CCN(c3cc4c(cc3F)c(=O)c(C(=O)N/N=C/c3ccc(OC)c(OC)c3)cn4C3CC3)CC2)cc1OC ?
**Result** inactive

**Query** What do you get for Cc1nc2sc(C(=O)Nc3cccc(Cl)c3C)c(N)c2cc1C(=O)/C=C/c1ccccc1 ?
**Result** active

----------
tested on: A498 renal; assay: NCI tumour cell line growth inhibition, 48 h
Exercise: for every item that follows, state its recorded TGI.

>>> measured("O=C(/C=C/c1ccc(F)cc1)c1ccc(Cl)cc1Cl")
"> 100 µM"
>>> measured("CN1CCC2(CC1)SC[C@H]1C(=O)N(c3ccc(Cl)cc3)C(=O)N12")
"86.3 µM"
>>> measured("COc1ccc([N+](=O)[O-])c2c(NCCCN(C)C)c3ccccc3nc12")
"0.0733 µM"
>>> measured("OC1(CCc2ccccc2)COC(C(F)(F)F)(C(F)(F)F)C1 (stereo unspecified)")
"> 100 µM"
>>> measured("CC(=O)OCC1OC(N2C(=O)C(=O)c3cc(C)ccc32)C(OC(C)=O)C(OC(C)=O)C1OC(C)=O (stereo unspecified)")
"> 100 µM"

Then this molecule:
**Query** I am curious: what TGI value has been reported for Cc1c(NC(=O)C(C)(C)Br)c(=O)oc2c(C)c3occc(=O)c3cc12 ?
**Result** 66.3 µM

----------
Exercise: for every item that follows, state its recorded TGI.
tested on: UACC-62 melanoma; test: NCI tumour cell line growth inhibition, 48 h

>>> measured("COc1ccc(NC(=O)C(=O)C(C(=O)c2ccccc2)C2OC(=O)c3ccccc32)c([N+](=O)[O-])c1 (stereo unspecified)")
"> 100 µM"
>>> measured("Cc1cc(C)nc(NS(=O)(=O)c2ccc(NNc3c4ccccc4nc4c(C(=O)Nc5ccc(S(=O)(=O)Nc6ncccn6)cc5)cccc34)cc2)n1")
"83.7 µM"
>>> measured("COc1cc(/C=C(\\C#N)c2nc3ccccc3o2)ccc1O")
"40.5 µM"
>>> measured("CCOC(=O)c1cc(C#N)c(=O)n(/N=C(\\C)c2ccncc2)c1O")
"> 100 µM"
>>> measured("CC(=O)C(=[N+]=[N-])C(=O)NCC#N")
"> 10 µM"

Then this compound:
**Query** I am curious: what TGI value has been reported for COc1cc(OC)c(/C=C/S(=O)(=O)Cc2cnc(OC)c(N)c2)c(OC)c1 ?
**Result** > 100 µM

----------
system: HCT-116 colon; test: NCI tumour cell line growth inhibition, 48 h
Where a SMILES comes first, the peptide text is derived from it. [ ]: non-standard residue; d: D form. Ac5c = NC1(C(=O)O)CCCC1
Exercise: for every item that follows, state its recorded TGI.

Look over these answered cases.
>>> measured("O=[N+]([O-])c1cccc(/C=N\\NS(=O)(=O)c2ccc(Cl)cc2)c1O")
"> 100 µM"
>>> measured("CN(C)C=C1C(=O)c2c(Br)sc(Br)c2C1=O")
"53.9 µM"
>>> measured("CSc1ccc(C2=NN(C(=O)c3ccc(F)cc3)C(c3ccc(F)cc3)C2)cc1 (centres undefined)")
"12.7 µM"
>>> measured("O=c1[nH]c(C23CC4CC(CC(C4)C2)C3)cc2c1c(=O)oc1ccccc12")
"12.4 µM"
>>> measured("O=C(c1cc(Cl)cc(Cl)c1)N(C(=O)N1CCN(c2ccccc2)CC1)c1ccccc1")
"> 100 µM"

Give one value of TGI per listed compound.
1. CCN(CC)CSc1nc2ccccc2o1
2. NC1(C(=O)NC2(C(=O)O)CCCC2)CCCC1 (H-[Ac5c]-[Ac5c]-OH)
3. Nc1c(C(=O)c2ccc(Cl)cc2)sc(Nc2ccccc2)c1-c1nc2ccccc2s1
4. NNC(=O)/C(=C/c1ccc(Cl)c(Cl)c1)NC(=O)c1ccccc1

**Result**
1: > 100 µM; 2: > 100 µM; 3: > 100 µM; 4: > 100 µM

Give one value of TGI per listed compound.
1. ClCc1cccc(Cn2cnc3c(NC45CC6CC(CC(C6)C4)C5)ncnc32)c1
2. COc1ccc(-c2onc(-c3ccc([N+](=O)[O-])cc3)c2C2=NCCN2)cc1
3. CCN(CC)C(=C(C(Cl)=C(Cl)Cl)[N+](=O)[O-])N(CC)CC

**Result**
["30.4 µM", "> 100 µM", "> 100 µM"]

Give one value of TGI per listed compound.
1. O=C(Nc1cc(Cl)c(Cl)cc1Cl)C(=O)C1C=CCS1(=O)=O (centres undefined)
2. O=C1c2ccccc2C(=O)N1CCCSc1ccccc1
3. CC12CCC3[C@@H](CC3(C)C)C(O)(CCC1=O)C2 (some centres undefined)
4. Cc1c(NC(=O)C(C)(C)Br)c(=O)oc2c(C)c3occc(=O)c3cc12
5. CCC(C)C(C(=O)N/N=C1/SCC(=O)N1c1ccccc1)C(=O)N/N=C1/SCC(=O)N1c1ccccc1 (centres undefined)

**Result**
["> 100 µM", "> 100 µM", "> 100 µM", "> 100 µM", "58.9 µM"]

Give one value of TGI per listed compound.
1. c1ccc2c(C3CCN(CCN4CCOCC4)C3)c[nH]c2c1 (centres undefined)
2. O=c1ccn(C2OC(CO)C(O)C2F)c(=O)[nH]1 (centres undefined)

**Result**
["> 100 µM", "> 1000 µM"]

----------
tested on: HS 578T breast; assay: NCI tumour cell line growth inhibition, 48 h; in the data active = GI50 below about 0.43 µM; inactive = the rest
Please reply with one of these outcomes: active, inactive

# example entries with known answers
>>> assigned_label("COc1cc(C(=O)/C(C)=C/c2c[nH]c3ccccc23)cc(OC)c1OC")
"active"
>>> assigned_label("Cn1c([N+](=O)[O-])cnc1/C=C1\\Oc2ccccc2C1=O")
"inactive"
>>> assigned_label("COc1cc(OC)cc(C2CC(=O)Nc3c2c(C)nn3-c2nc3ccccc3[nH]2)c1 (stereo not given)")
"inactive"

Continue with the next compound.
**Query** Name the outcome recorded for O=[N+]([O-])c1cc(Cl)c(Cl)c([N+](=O)[O-])c1Cl in the assay.
**Result** inactive

----------
Exercise: for every item that follows, state its recorded TGI.
tested on: UACC-257 melanoma; assay: NCI tumour cell line growth inhibition, 48 h

Look over these answered cases.
>>> measured("NNC(=O)/C(=C/c1ccc(Cl)c(Cl)c1)NC(=O)c1ccccc1")
"> 100 µM"
>>> measured("CCN1CCN(C(=O)[C@]23CC[C@@H](C)[C@H](C)[C@@H]2C2=CC[C@@H]4[C@@]5(C)C/C(=C/c6ccncc6)C(=O)C(C)(C)[C@@H]5CC[C@@]4(C)[C@]2(C)CC3)CC1")
"3.92 µM"
>>> measured("Cc1csc2nc3c(cnn3C)c(=S)n12")
"> 100 µM"
>>> measured("C=CC1(C(=O)O)CCC(C(C)(C)C)CC1 (stereo not given)")
"> 100 µM"
>>> measured("O=C(O[C@H]1CN[C@H](C#Cc2cc3ncnc(Nc4ccc5c(ccn5Cc5cc(F)ccc5F)c4)c3s2)C1)N1CCOCC1")
"10.6 µM"
>>> measured("Cc1c(C)c2c(c(N)c1C#N)C(=O)N(CCc1ccccc1)C2=O")
"> 100 µM"

Give one value of TGI per listed compound.
1. COc1cc(OCc2nc3ccccc3n3cccc23)cc(OC)c1OC
2. N#CC(C#N)N=Cc1ccncc1
3. O=C(c1cc(Cl)cc(Cl)c1)N(C(=O)N1CCN(c2ccccc2)CC1)c1ccccc1
4. COC(=O)C(C)NP(=O)(N1CC1)N1CC1 (stereo not given)

**Result**
1: > 60.9 µM; 2: > 100 µM; 3: > 100 µM; 4: > 100 µM
